EC50 by entry:
System: Hepatitis C virus
Experiment: Antiviral activity against HCV infected in HuH7 Clone B cells assessed as inhibition of viral replication after 5 days by RT-PCR method
Format: functional, organism-based, Hepacivirus hominis
Settings: 120 h
Provide only the numeric value, understood in µM.

INSERT INTO results (compound, measure_unit, recorded_number) VALUES
  ('C[C@@]1(O)[C@H](O)[C@@H](CO)O[C@H]1n1cnc2c(ONC(=O)OCc3ccccc3)nc(N)nc21', 'µM', 2.4);

**Q:** Indicate the recorded EC50 value for this compound: CCOC(=O)[C@H](C)NP(=O)(OC[C@H]1O[C@@H](n2cnc3c(N)nc(ONC(=O)OCc4ccccc4)nc32)[C@](C)(O)[C@@H]1O)Oc1ccccc1 (stereo not given in full)
**A:** 4.8

**Q:** Indicate the recorded EC50 value for this compound: CCOC(=O)[C@H](C)NP(=O)(OC[C@H]1O[C@@H](n2cnc3c(N)nc(OC)nc32)[C@](C)(O)[C@@H]1O)Oc1ccccc1 (stereo not given in full)
**A:** 1

**Q:** Indicate the recorded EC50 value for this compound: CCOC(=O)[C@H](C)NP(=O)(OC[C@H]1O[C@@H](n2cnc3c(N)nc(Cl)nc32)[C@](C)(O)[C@@H]1O)Oc1ccccc1 (stereo not given in full)
**A:** 1.7

**Q:** Indicate the recorded EC50 value for this compound: C[C@@]1(O)[C@H](O)[C@@H](CO)O[C@H]1n1cnc2c(NO)nc(N)nc21
**A:** 0.3

**Q:** Indicate the recorded EC50 value for this compound: CCOC(=O)[C@H](C)NP(=O)(OC[C@H]1O[C@@H](n2cnc3c(N=[N+]=[N-])nc(N)nc32)[C@](C)(O)[C@@H]1O)Oc1ccccc1 (stereo not given in full)
**A:** 2.4

**Q:** Indicate the recorded EC50 value for this compound: COc1nc(N)nc2c1ncn2[C@@H]1O[C@H](COP(=O)(N[C@@H](C)C(=O)OCC(C)(C)C)Oc2cccc3ccccc23)[C@@H](O)[C@@]1(C)O (stereo not given in full) [BMS-986094]
**A:** 0.02

**Q:** Indicate the recorded EC50 value for this compound: CCOC(=O)[C@H](C)NP(=O)(OC[C@H]1O[C@@H](n2cnc3c(N)nc(N=[N+]=[N-])nc32)[C@](C)(O)[C@@H]1O)Oc1ccccc1 (stereo not given in full)
**A:** 2.3

**Q:** Indicate the recorded EC50 value for this compound: CC(C)(C)OC(=O)NOc1nc(N)nc2c1ncn2[C@@H]1O[C@H](CO)[C@@H](O)[C@@]1(C)O
**A:** 0.9
